System: PKAC-beta
Construct: gene PRKACB
recordedConditions: concentration: 1 μM,replicates: in singlicate; n = 1;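 note: KINOMEscan kinase panel screen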
So I've got a bunch of compounds here, and I need their %Inh values.
Give bare numbers, in %.

- compound: "NC(=O)c1ccc(-c2cc3ncnc(SCC(=O)O)c3s2)cc1"
  observedMeasurement: 0
- compound: "CNC(=O)c1ccccc1Nc1nc(Nc2cccc(CS(C)(=O)=O)c2)ncc1C.O=CO"
  observedMeasurement: 28
- compound: "CN1CCN(CCNc2nc3cc(Oc4ccc(NC(=O)Nc5cc(C(F)(F)F)ccc5F)cc4)ccc3[nH]2)CC1.Cl.Cl"
  observedMeasurement: 2
- compound: "Cc1ccc2c(-c3ccnc(Nc4ccc(C(F)(F)F)cc4)n3)cnn2n1"
  observedMeasurement: 20
- compound: "Cc1nnc(-c2ccc3occ(-c4ccc(S(C)=O)cc4)c3n2)o1 (centres unmarked)"
  observedMeasurement: 0
- compound: "COC(=O)c1cccc(NC(=O)NC2CCN(c3ccnc(NCc4ccc(F)cc4)n3)CC2)c1"
  observedMeasurement: 0
- compound: "Cn1ccc2ncnc(Oc3ccc(NC(=O)Nc4ccnc(C(F)(F)F)c4)c(Cl)c3)c21"
  observedMeasurement: 0
- compound: "COc1cc(Nc2nccc(N3CCC(NC(=O)c4cccc(C#N)c4)C3)n2)cc(OC)c1OC (centres unmarked)"
  observedMeasurement: 0
- compound: "C[C@@H](Oc1cc(-n2cnc3cc(-c4ccncc4)ccc32)sc1C(N)=O)c1ccccc1Cl"
  observedMeasurement: 0
- compound: "CC(C)S(=O)(=O)N1CCN(Cc2ccc3c(c2)nc(NC(=O)c2ccsc2)n3C[C@H](O)c2ccccc2)CC1"
  observedMeasurement: 27

Each compound below has a reported value. Please supply its %Inh.
1. FC(F)(F)c1cc(Br)cc(Nc2nccc(-c3cnn4ncccc34)n2)c1
2. CCCC(=O)Nc1n[nH]c2ncccc12

Result:
0
10

I'm hoping you can list %Inh for every compound here, please.
1. Cc1n[nH]c2cc(Nc3ccnc(Nc4cccc(CN5CCOCC5)c4)n3)ccc12
2. O=C(Nc1ccccc1)c1cccc(Oc2ccc3nccn3n2)c1

Result:
1: 0; 2: 0

====

System: HPK1
recordedConditions: concentration: 1 μM,replicates: in singlicate; n = 1
For each entry below, report its %Inh value.

Example molecules with recorded %Inh:
- molecule: "FC(F)(F)c1cc(Br)cc(Nc2nccc(-c3cnn4ncccc34)n2)c1 [GW810578]"
  %Inh: "13%"
- molecule: "Cn1ccc2ncnc(Oc3ccc(NC(=O)Nc4cc(C(C)(C)C)on4)c(Cl)c3)c21"
  %Inh: "30%"

Take each entry in turn and give its %Inh.
1. O=C(Nc1n[nH]c2cc(-c3ccco3)ccc12)C1CC1 [SB-737447]
2. C[C@@H](Oc1cc(-n2cnc3ccc(-c4ccncc4)cc32)sc1C(N)=O)c1ccccc1Cl [GSK483724]
3. Cn1ccc2ncnc(Oc3ccc(NC(=O)Nc4cnn(C(C)(C)C)c4)c(Cl)c3)c21

Result:
["3%", "64%", "5%"]

====

For each of the compounds below, state its %Inh.
Test system: PRKR
Construct: gene EIF2AK2
recordedConditions: concentration: 1 μM,replicates: in singlicate; n = 1

- compound: "COc1cccc(CNC(=O)NC2CCN(c3ccnc(Nc4cc(OC)c(OC)c(OC)c4)n3)C2)c1 (centres unmarked) [GSK1379765]"
  observedMeasurement: "0%"

Give measured %Inh for every item shown.
1. O=C1NCCc2[nH]c(-c3ccncc3)cc21
2. CC(=O)Nc1nc2cnc(Nc3cc(NC(=O)c4cccc(CC(C)(C)C#N)c4)ccc3C)nc2s1

Result:
1. 9%
2. 0%

Please report %Inh for every entry that follows.
1. C[C@@H]1CNc2c(sc3ccc4nc(-c5ccc(O)cc5)ccc4c23)C(=O)N1
2. CN1CCN(CCCNc2nccc(-c3c(-c4ccc(F)cc4)nn4cc(C(N)=O)ccc34)n2)CC1 [GW622475]
3. C[C@@H](Oc1cc(-n2cnc3ccc(-c4ccncc4)cc32)sc1C(N)=O)c1ccccc1Cl [GSK483724]

Result:
1. 0%
2. 2%
3. 0%

Report %Inh for every entry below.
1. C[C@@H](Oc1cc(-n2cnc3cc(-c4cnn(C)c4)ccc32)sc1C(N)=O)c1ccccc1Cl [GSK580432]
2. Cc1ccc(C(=O)Nc2ccc(Oc3ccc4nc(NC(=O)C5CC5)cn4c3)c(F)c2)c(=O)n1-c1ccccc1
3. O=C(Nc1n[nH]c2cc(-c3ccco3)ccc12)C1CC1 [SB-737447]
4. CC(C(=O)NC1CCN(c2ccnc(Nc3ccc(F)cc3)n2)C1)c1ccc(Cl)cc1 (centres unmarked) [GSK1379713]
5. CN1CCN(CCNc2nc3cc(Oc4ccc(NC(=O)Nc5cc(C(F)(F)F)ccc5F)cc4)ccc3[nH]2)CC1.Cl.Cl [GW768504]

Result:
1: 0%; 2: 4%; 3: 0%; 4: 0%; 5: 24%
